target: SMARCA4 (Homo sapiens, UniProt P51532); construct: SMARCA2/SMARCA4 protein degradation selectivity in MV4-11 cells; endogenous in cells; host or cells: MV4-11; experiment: SMARCA4 Western blot degradation in MV4-11 cells; format: cell-based; conditions: MV4-11 cells, 24 h; read-out: SMARCA4 MSD MV411 degradation 24 h: Mean external-Abs DC50
Sequence (P51532 whole entry): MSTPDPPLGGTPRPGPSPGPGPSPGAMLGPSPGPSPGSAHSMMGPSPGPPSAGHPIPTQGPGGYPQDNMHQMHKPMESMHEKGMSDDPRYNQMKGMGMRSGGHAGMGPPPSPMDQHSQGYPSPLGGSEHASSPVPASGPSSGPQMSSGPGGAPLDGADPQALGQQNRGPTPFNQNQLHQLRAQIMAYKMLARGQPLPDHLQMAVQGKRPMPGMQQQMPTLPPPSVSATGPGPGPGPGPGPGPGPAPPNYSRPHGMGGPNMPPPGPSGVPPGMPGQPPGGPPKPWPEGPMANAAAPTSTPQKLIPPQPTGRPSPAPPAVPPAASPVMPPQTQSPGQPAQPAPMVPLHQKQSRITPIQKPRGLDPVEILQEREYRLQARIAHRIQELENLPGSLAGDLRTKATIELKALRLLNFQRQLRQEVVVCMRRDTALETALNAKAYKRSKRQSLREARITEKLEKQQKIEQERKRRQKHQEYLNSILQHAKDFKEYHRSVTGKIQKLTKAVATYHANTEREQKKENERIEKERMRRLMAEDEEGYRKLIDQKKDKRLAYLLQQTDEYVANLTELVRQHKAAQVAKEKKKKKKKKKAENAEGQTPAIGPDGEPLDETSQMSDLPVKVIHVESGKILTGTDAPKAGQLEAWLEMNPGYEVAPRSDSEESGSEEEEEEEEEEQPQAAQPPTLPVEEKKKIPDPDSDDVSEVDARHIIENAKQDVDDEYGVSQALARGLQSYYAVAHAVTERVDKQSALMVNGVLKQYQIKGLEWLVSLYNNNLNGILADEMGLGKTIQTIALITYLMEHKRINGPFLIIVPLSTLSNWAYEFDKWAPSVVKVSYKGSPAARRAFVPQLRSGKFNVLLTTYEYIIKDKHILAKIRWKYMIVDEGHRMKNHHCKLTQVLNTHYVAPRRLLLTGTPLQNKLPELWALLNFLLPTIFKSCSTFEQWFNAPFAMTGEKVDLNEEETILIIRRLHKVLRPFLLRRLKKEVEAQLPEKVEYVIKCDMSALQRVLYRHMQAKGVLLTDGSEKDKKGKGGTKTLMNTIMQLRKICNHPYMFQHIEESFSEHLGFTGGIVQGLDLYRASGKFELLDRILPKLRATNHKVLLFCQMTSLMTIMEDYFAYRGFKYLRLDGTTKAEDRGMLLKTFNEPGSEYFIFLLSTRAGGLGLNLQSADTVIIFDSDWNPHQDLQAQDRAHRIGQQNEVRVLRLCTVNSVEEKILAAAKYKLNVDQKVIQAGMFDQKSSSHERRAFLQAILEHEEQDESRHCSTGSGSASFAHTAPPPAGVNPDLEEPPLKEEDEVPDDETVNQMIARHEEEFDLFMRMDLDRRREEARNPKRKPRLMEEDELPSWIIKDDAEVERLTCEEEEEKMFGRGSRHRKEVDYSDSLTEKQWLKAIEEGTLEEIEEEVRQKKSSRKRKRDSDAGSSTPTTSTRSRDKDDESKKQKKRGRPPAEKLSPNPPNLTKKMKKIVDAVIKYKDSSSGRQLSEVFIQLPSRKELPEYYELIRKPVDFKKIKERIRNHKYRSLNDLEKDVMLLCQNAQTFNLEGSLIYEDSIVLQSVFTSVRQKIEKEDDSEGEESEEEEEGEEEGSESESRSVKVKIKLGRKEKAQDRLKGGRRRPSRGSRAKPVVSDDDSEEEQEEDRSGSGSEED
measured-metric: DC50

compound	DC50
C#Cc1ccc(CNC(=O)[C@@H]2C[C@@H](O)CN2C(=O)[C@@H](NC(=O)N2CC3(CC(N4CCC(c5cnc(N6CCc7[nH]c8nnc(-c9ccccc9O)cc8c7[C@H]6C)nc5)CC4)C3)C2)C(C)(C)CCN2CCN[C@H](C(=O)O)C2)cc1 [I-344]	> 100 nM

Entry Cc1ncsc1-c1ccc(CNC(=O)[C@@H]2C[C@@H](O)CN2C(=O)[C@@H](NC(=O)[C@H]2CC3(CC[C@H](N4CCC(c5cnc(N6CCN7c8cc(-c9ccccc9O)nnc8NC[C@H]7C6)nc5)CC4)CC3)C2)C(C)(C)C)cc1 (single isomer, unassigned) [I-66] has what DC50?
> 100 nM

###

biological target: SMARCA4 (Homo sapiens, UniProt P51532); construct: SMARCA2/SMARCA4 protein degradation selectivity in MV4-11 cells; endogenous in cells; host or cells: MV4-11; test: SMARCA4 Western blot degradation in MV4-11 cells; assay type: cell-based; conditions: MV4-11, MV4-11 cells, 24 h; read-out: SMARCA4 MSD MV411 degradation 24 h: average Dmax %
measured-metric: Dmax

molecule	Dmax
Cc1ncsc1-c1ccc([C@H](C)NC(=O)[C@@H]2C[C@@H](O)CN2C(=O)[C@@H](NC(=O)Cc2ccc(CCCC(=O)N3CCN4c5cc(-c6ccccc6O)nnc5NC[C@H]4C3)cc2)C(C)(C)C)cc1 (single isomer, unassigned)	> 90%

Would you kindly look at the next entry?
Entry C#Cc1ccc([C@H](C)NC(=O)[C@@H]2C[C@@H](O)CN2C(=O)[C@@H](NC(=O)N2CC3(CC(N4CCN(c5cnc(N6CCc7[nH]c8nnc(-c9ccccc9O)cc8c7[C@H]6C)nc5)CC4)C3)C2)C(C)(C)CCO)cc1 has what Dmax?
70 to 90%

###

biological target: SMARCA4 (Homo sapiens); construct: SMARCA2/SMARCA4 protein degradation selectivity in MV4-11 cells; endogenous in cells; host or cells: MV4-11; test: SMARCA4 Western blot degradation in MV4-11 cells; type: cell-based; details: MV4-11 cells, 24 h; read-out: SMARCA4 MSD MV411 degradation 24 h: Mean external-Abs DC50
measured-metric: DC50

compound	result
Cc1ncsc1-c1ccc(CNC(=O)[C@@H]2C[C@@H](O)CN2C(=O)[C@@H](NC(=O)[C@H]2CC3(C2)C[C@H](N2CCN(c4cnc(N5CCc6[nH]c7nnc(-c8ccccc8O)cc7c6[C@H]5C)nc4)CC2)C3)C(C)(C)C)cc1 (single isomer, unassigned) [I-77]	> 0.1 µM
C#Cc1ccc([C@H](CO)NC(=O)[C@@H]2C[C@@H](O)CN2C(=O)[C@@H](NC(=O)N2CC3(CC(N4CCC(c5cnc(N6CCc7[nH]c8nnc(-c9ccccc9O)cc8c7[C@H]6C)nc5)CC4)C3)C2)C(C)(C)C)cc1	< 0.001 µM
C#Cc1ccc(CNC(=O)[C@@H]2C[C@@H](O)CN2C(=O)[C@@H](NC(=O)[C@H]2CCC3(CC2)C[C@H](N2CCC(N4CC5(CC(N6CCN7c8cc(-c9ccccc9O)nnc8NC[C@H]7C6)C5)C4)CC2)C3)C(C)(C)C)c(Cl)c1 (single isomer, unassigned) [I-220]	> 0.1 µM

Would you kindly look at the next entry?
Look up DC50 with SMARCA4 (Homo sapiens) for this compound: C#Cc1ccc(CNC(=O)[C@@H]2C[C@@H](O)CN2C(=O)[C@@H](NC(=O)C2CCN(C[C@H]3CC[C@@H](N4CCc5[nH]c6nnc(-c7ccccc7O)cc6c5[C@H]4C)CC3)CC2)C(C)(C)C)cc1 (single isomer, unassigned)
> 0.1 µM

###

target: SMARCA4 (Homo sapiens); construct: SMARCA2/SMARCA4 protein degradation selectivity in MV4-11 cells; endogenous in cells; host or cells: MV4-11; test: SMARCA4 Western blot degradation in MV4-11 cells; type: cell-based; details: MV4-11, MV4-11 cells, 24 h; read-out: SMARCA4 MSD MV411 degradation 24 h: average Dmax %
measured-metric: Dmax

compound	Dmax
C#Cc1ccc(CNC(=O)[C@@H]2C[C@@H](O)CN2C(=O)[C@@H](NC(=O)N2CC3(CC(N4CCC(c5cnc(N6CCc7[nH]c8nnc(-c9ccccc9O)cc8c7[C@H]6C)s5)CC4)C3)C2)C(C)(C)C)cc1 [I-323]	50 to 70%

Would you kindly look at the next entry?
Entry Cc1ncsc1-c1ccc(CNC(=O)[C@@H]2C[C@@H](O)CN2C(=O)[C@@H](NC(=O)C2(F)CC2)C(C)(C)C)c(O[C@H]2CC[C@@H](N3CCC(c4cnc(N5CCc6[nH]c7nnc(-c8ccccc8O)cc7c6[C@H]5C)nc4)CC3)CC2)c1 (single isomer, unassigned) [I-31] has what Dmax?
50 to 70%

###

Here, each record is paired with measured Dmax data.
target: SMARCA2 (Homo sapiens); test: MSD SMARCA2 degradation in A549 cell line; assay type: cell-based; conditions: A549, A549 cells, 24 h

compound	test-system	Dmax
C#Cc1ccc(CNC(=O)[C@@H]2C[C@@H](O)CN2C(=O)C(c2cc(N3CCC(CN4CCC(N5CCC(N6CCN7c8cc(-c9ccccc9O)nnc8NC[C@H]7C6)CC5)CC4)CC3)no2)C(C)C)c(Cl)c1 (some centres unmarked) [I-325]	SMARCA2 (Homo sapiens)	> 90%
C#Cc1ccc([C@H](C)NC(=O)[C@@H]2C[C@@H](O)CN2C(=O)[C@@H](NC(=O)N2CC3(CC(N4CCC(c5cnc(N6CCc7[nH]c8nnc(-c9ccccc9O)cc8c7[C@H]6C)nc5)CC4)C3)C2)C(C)(C)C)c(O)c1 [I-282]	SMARCA2 (Homo sapiens)	> 90%
C#Cc1ccc(CNC(=O)[C@@H]2C[C@@H](O)CN2C(=O)[C@H](NC(=O)N2CC3(CC(N4CCC(c5cnc(N6CCc7[nH]c8nnc(-c9ccccc9O)cc8c7[C@H]6C)nc5)CC4)C3)C2)C(C)(C)CCN2CCN[C@@H](C(=O)O)C2)cc1 [I-341]	SMARCA2 (Homo sapiens)	< 50%

Look up Dmax with SMARCA2 (Homo sapiens) for this compound: C#Cc1ccc(CNC(=O)[C@@H]2C[C@@H](O)CN2C(=O)[C@@H](NC(=O)N2CC3(CN(CC4CCN(c5cnc(N6CCc7[nH]c8nnc(-c9ccccc9O)cc8c7[C@@H]6C)nc5)CC4)C3)C2)C(C)(C)C)cc1 [I-165]
> 90%

Also need C#Cc1ccc(CNC(=O)[C@@H]2C[C@@H](O)CN2C(=O)[C@@H](NC(=O)N2CCC(CN3CCC(N4CCC(N5CCc6[nH]c7nnc(-c8ccccc8O)cc7c6[C@H]5C)CC4)CC3)CC2)C(C)(C)C)cc1 [I-189] , thanks.
50 to 70%

###

biological target: SMARCA2 (Homo sapiens, UniProt P51531); assay: SMARCA2 Western blot degradation in MV4-11 cells; assay type: cell-based; set-up: SMARCA2/SMARCA4 protein degradation selectivity in MV4-11 cells; endogenous in cells; host or cells: MV4-11; settings: MV4-11, MV4-11 cells, 24 h; read-out: SMARCA2 MSD MV411 degradation 24 h: average Dmax %
Sequence (P51531 whole entry): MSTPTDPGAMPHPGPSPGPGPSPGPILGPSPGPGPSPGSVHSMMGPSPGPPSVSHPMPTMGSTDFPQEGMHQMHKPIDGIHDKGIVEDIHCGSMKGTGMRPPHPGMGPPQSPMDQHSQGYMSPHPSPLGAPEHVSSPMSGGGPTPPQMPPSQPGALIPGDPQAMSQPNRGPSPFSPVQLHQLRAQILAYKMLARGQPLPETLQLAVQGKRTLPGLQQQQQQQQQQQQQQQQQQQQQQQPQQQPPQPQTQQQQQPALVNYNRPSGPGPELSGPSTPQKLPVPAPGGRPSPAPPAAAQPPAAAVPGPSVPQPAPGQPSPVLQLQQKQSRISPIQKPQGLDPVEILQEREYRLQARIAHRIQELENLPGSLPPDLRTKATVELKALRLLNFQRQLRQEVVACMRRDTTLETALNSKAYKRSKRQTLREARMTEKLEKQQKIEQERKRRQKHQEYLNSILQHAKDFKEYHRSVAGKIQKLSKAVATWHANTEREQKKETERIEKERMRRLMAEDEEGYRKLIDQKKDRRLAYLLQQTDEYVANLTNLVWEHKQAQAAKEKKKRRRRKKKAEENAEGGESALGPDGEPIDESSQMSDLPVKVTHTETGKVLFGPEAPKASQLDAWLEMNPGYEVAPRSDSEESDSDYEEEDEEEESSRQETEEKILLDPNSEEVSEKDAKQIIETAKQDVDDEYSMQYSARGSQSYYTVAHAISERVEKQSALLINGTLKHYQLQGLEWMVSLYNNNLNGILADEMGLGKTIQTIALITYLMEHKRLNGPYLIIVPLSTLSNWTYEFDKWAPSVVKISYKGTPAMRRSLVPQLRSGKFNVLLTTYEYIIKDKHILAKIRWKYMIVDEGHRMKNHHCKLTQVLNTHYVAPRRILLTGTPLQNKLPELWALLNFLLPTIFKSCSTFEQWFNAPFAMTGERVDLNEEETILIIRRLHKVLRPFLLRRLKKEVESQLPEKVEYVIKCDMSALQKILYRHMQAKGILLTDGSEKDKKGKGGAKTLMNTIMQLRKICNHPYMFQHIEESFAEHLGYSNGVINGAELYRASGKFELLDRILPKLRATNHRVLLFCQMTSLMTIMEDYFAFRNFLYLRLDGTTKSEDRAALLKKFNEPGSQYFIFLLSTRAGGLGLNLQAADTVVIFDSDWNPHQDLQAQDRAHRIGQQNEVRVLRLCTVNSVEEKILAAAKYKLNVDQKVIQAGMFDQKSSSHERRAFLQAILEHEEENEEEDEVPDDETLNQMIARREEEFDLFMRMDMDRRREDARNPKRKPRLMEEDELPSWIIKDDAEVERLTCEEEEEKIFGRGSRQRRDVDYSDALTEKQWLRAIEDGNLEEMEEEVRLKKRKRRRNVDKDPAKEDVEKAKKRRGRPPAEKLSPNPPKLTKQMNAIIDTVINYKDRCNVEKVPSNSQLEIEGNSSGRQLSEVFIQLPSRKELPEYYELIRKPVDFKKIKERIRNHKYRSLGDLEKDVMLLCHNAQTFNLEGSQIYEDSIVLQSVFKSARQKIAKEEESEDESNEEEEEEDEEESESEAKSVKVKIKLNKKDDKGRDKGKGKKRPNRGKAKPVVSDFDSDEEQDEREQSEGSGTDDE
measured-metric: Dmax

Below, 3 compounds whose answers are already recorded.
compound	test-system	measured-metric	result
C#Cc1ccc(CNC(=O)[C@@H]2C[C@@H](O)CN2C(=O)[C@@H](NC(=O)[C@H]2CC3(C2)C[C@H](N2CCC(N4CCC(N5CCN6c7cc(-c8ccccc8O)nnc7NC[C@H]6C5)CC4)CC2)C3)C(C)(C)C)c(Cl)c1 (single isomer, unassigned)	SMARCA2 (Homo sapiens, UniProt P51531)	Dmax	70 to 90%
C#Cc1ccc(CNC(=O)[C@@H]2C[C@@H](O)CN2C(=O)[C@@H](NC(=O)N2CC3(CC(N4CCN([C@H]5CC[C@H](N6CCc7[nH]c8nnc(-c9ccccc9O)cc8c7[C@H]6C)CC5)CC4)C3)C2)C(C)(C)C)cc1	SMARCA2 (Homo sapiens, UniProt P51531)	Dmax	70 to 90%
C#Cc1ccc(CNC(=O)[C@@H]2C[C@@H](O)CN2C(=O)[C@@H](NC(=O)[C@H]2CC[C@H](c3ccc(-c4cnc(N5CCN6c7cc(-c8ccccc8O)nnc7NC[C@H]6C5)nc4)cc3)CC2)C(C)(C)C)cc1	SMARCA2 (Homo sapiens, UniProt P51531)	Dmax	70 to 90%

Would you kindly look at the next entry?
Entry Cc1cc(F)ccc1C#CCNC(=O)[C@@H]1C[C@@H](O)CN1C(=O)[C@@H](NC(=O)[C@H]1CCC2(CC1)C[C@H](N1CCC(c3cnc(N4CCN5c6cc(-c7ccccc7O)nnc6NC[C@H]5C4)nc3)CC1)C2)C(C)(C)C (single isomer, unassigned) has what Dmax?
< 50%
